- system: T1, STnMUC1 peptide, biotinylated
- T1 construct: also called STn peptide; 35-1
- T1 sequence (main, as listed by the source): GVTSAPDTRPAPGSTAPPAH
- experimental.protocol: SPR (Biacore T200): biotinylated STnMUC1 peptide (35-1) captured on CAP chip, scFv as analyte, 1:1 fit, average
measured.parameter: kon
Answer shape: numeric part, then the unit.

I am curious: what kon value has been reported for humanised anti-TnMUC1 scFv protein 13P16 (97A), L2-H3 (scFv, Supernatant of construct 6D16 in the Octet assay; purified 13P16 elsewhere. scFv of CAR MB024; also called 6D16) scFv: DIVMTQSPDSLAVSLGERATINCKSSQSLLNSGDQKNYLTWYQQKPGQPPKLLIFWASTRESGVPDRFSGSGSGTDFTLTISSLQAEDVAVYYCQNDYSYPLTFGQGTKLEIKGGGGSGGGGSGGGGSGGGGSQVQLVQSGAEVKKPGSSVKVSCKASGYTFTDHAIHWVRQAPGQGLEWMGHFSPGNTDIKYNDKFKGRVTITADKSTSTAYMELSSLRSEDTAVYYCKTSTFFFDYWGQGTTVTVSSAAAHHHHHH ?
2630 M⁻¹ s⁻¹

I am curious: what kon value has been reported for humanised anti-TnMUC1 scFv protein 16P4 (82A), L0-H3 (scFv, Supernatant of construct 6D4 in the Octet assay; purified 16P4 elsewhere. scFv of CAR MB021; also called 6D4) scFv: DIVMTQSPDSLAVSLGERATINCKSSQSLLNSGDQKNYLTWYQQKPGQPPKLLIYWASTRESGVPDRFSGSGSGTDFTLTISSLQAEDVAVYYCQNDYSYPLTFGQGTKLEIKGGGGSGGGGSGGGGSGGGGSQVQLVQSGAEVKKPGSSVKVSCKASGYTFTDHAIHWVRQAPGQGLEWMGHFSPGNTDIKYNDKFKGRVTITADKSTSTAYMELSSLRSEDTAVYYCKTSTFFFDYWGQGTTVTVSSAAAHHHHHH ?
2290 M⁻¹ s⁻¹

I am curious: what kon value has been reported for humanised anti-TnMUC1 scFv protein 13P18 (19A), L2-H5 (scFv, Supernatant of construct 6D18 in the Octet assay; purified 13P18 elsewhere. scFv of CAR MB025; also called 6D18) scFv: DIVMTQSPDSLAVSLGERATINCKSSQSLLNSGDQKNYLTWYQQKPGQPPKLLIFWASTRESGVPDRFSGSGSGTDFTLTISSLQAEDVAVYYCQNDYSYPLTFGQGTKLEIKGGGGSGGGGSGGGGSGGGGSQVQLVQSGAEVKKPGSSVKVSCKASGYTFTDHAIHWVRQAPGQGLEWIGHFSPGNTDIKYNDKFKGRATLTVDRSTSTAYMELSSLRSEDTAVYFCKTSTFFFDYWGQGTTVTVSSAAAHHHHHH ?
2160 M⁻¹ s⁻¹

I am curious: what kon value has been reported for humanised anti-TnMUC1 scFv protein 11P6 (89A), L0-H5 (scFv, Supernatant of construct 6D6 in the Octet assay; purified 11P6 elsewhere; also called 6D6) scFv: DIVMTQSPDSLAVSLGERATINCKSSQSLLNSGDQKNYLTWYQQKPGQPPKLLIYWASTRESGVPDRFSGSGSGTDFTLTISSLQAEDVAVYYCQNDYSYPLTFGQGTKLEIKGGGGSGGGGSGGGGSGGGGSQVQLVQSGAEVKKPGSSVKVSCKASGYTFTDHAIHWVRQAPGQGLEWIGHFSPGNTDIKYNDKFKGRATLTVDRSTSTAYMELSSLRSEDTAVYFCKTSTFFFDYWGQGTTVTVSSAAAHHHHHH ?
2200 M⁻¹ s⁻¹

Data credit: patent US20230374151A1
